biological target: GDP-loaded KRAS-G12D (Homo sapiens (Human), UniProt P01116, G12D); assay: KRAS (GDP) biochemical TR-FRET probe displacement assay, KRAS-G12D; details: 2 hours
Sequence (P01116-2 other isoform, or with tags, fused parts or gaps G12D): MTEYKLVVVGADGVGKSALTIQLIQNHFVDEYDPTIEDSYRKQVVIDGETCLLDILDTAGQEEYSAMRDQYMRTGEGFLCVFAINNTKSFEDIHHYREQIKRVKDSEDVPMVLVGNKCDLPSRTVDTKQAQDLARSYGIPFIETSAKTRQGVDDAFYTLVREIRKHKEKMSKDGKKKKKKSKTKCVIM
parameter measured: pIC50
Remember, pIC50 is on a log scale: it is -log10 of the molar concentration.

For orientation, consider the following solved cases.
molecule: C#Cc1c(F)ccc2cc(N)cc(-c3nc4c5c(nc(OC[C@@]67CCCN6[C@H](COc6nccnc6C(F)F)CC7)nc5c3F)N3CCCOC[C@@H]3CC4)c12
parameter measured: pIC50
result value: 8.50

molecule: C#Cc1c(F)ccc2cc(O)cc(-c3nc4c5c(nc(OC[C@@]67CCCN6C[C@H](F)C7)nc5c3F)N3CCOCC[C@@H]3CC4)c12 (single isomer, unassigned)
parameter measured: pIC50
result value: 9.82

molecule: C#Cc1c(F)ccc2cccc(-c3nc4c5c(nc(OC[C@@]67CCCN6[C@H](COC(=O)N(CC)CC)CC7)nc5c3F)N3CCCOC[C@@H]3CC4)c12
parameter measured: pIC50
result value: 7.37

Exam item: Look up pIC50: `C#Cc1c(F)ccc2cc(O)cc(-c3nc4c5c(nc(OCC6(CN7CCCCC7)CC6)nc5c3F)N3CCCOC[C@@H]3CC4)c12`
Marked response: 7.25
